# Tested on: Candida dubliniensis
# method summary: Antifungal activity against Candida dubliniensis after 24 to 72 hrs by broth microdilution method
# Type: functional
metric name: MIC90 (µg/mL)
# number only, unit µg/mL dropped from output

query: # lookup: MIC90 of OC(Cn1cncn1)(Cn1cncn1)c1ccc(F)cc1F
result: 0.5

query: # lookup: MIC90 of C[C@@H]1[C@H](O)[C@@H](C)/C=C/C=C/C=C/C=C/C=C/C=C/C=C/[C@H](O[C@@H]2O[C@H](C)[C@@H](O)[C@H](N)[C@@H]2O)C[C@@H]2O[C@](O)(C[C@@H](O)C[C@@H](O)[C@H](O)CC[C@@H](O)C[C@@H](O)CC(=O)O[C@H]1C)C[C@H](O)[C@H]2C(=O)O
result: 0.125

query: # lookup: MIC90 of CCCCCCc1cc[n+](CCCCCCCCCCCC[n+]2ccc(CCCCCC)cc2)cc1.[Cl-].[Cl-]
result: 0.79

query: # lookup: MIC90 of C=CCCCc1cc[n+](CCCCCCCCCCCC[n+]2ccc(CCCC=C)cc2)cc1.[Cl-].[Cl-]
result: 2.93

query: # lookup: MIC90 of CCC(C)n1ncn(-c2ccc(N3CCN(c4ccc(OCC5COC(Cn6cncn6)(c6ccc(Cl)cc6Cl)O5)cc4)CC3)cc2)c1=O (stereo unspecified)
result: 0.06

query: # lookup: MIC90 of CC[C@@H]([C@H](C)O)n1ncn(-c2ccc(N3CCN(c4ccc(OC[C@@H]5CO[C@@](Cn6cncn6)(c6ccc(F)cc6F)C5)cc4)CC3)cc2)c1=O
result: 0.03

Where these numbers come from: ChEMBL document CHEMBL1629527
